Let's look at some compounds and their measured activity at 10 µM.
Tested on: IGROV1
Assay: NCI-60 one-dose SRB screening
Type: cell-based
Details: Homo sapiens, IGROV-1, IGROV1, Ovarian Cancer, 10 µM one dose, 48 h, read-out: growth percentage
READOUT: activity at 10 µM (%)

| ENTRY_SMILES | RESULT_VALUE |
| --- | --- |
| Cc1nc(Nc2ccc(OCc3c(-c4ccccc4)no[n+]3[O-])cc2)c2c(C)nn(-c3ccc(Br)cc3)c2n1 | 99 |
| [O-][n+]1onc(-c2ccccc2)c1COc1ccc(Nc2ncnc3c2cnn3-c2ccc(Br)cc2)cc1 | 106 |
| Cc1nc(Nc2ccc(OCc3c(-c4ccccc4)no[n+]3[O-])cc2)c2cnn(-c3ccccc3)c2n1 | 101 |
| Nc1ccc(NCc2c(-c3ccccc3)no[n+]2[O-])cc1 | 88.7 |
